Where do the numbers come from? From the supplement of paper PMC6757056.

B1: library; a variant is named by its letters at N, in order (parent)
chain: GCUGUCACCGGUGUAUUACCCUAGUGGUCGACCGGUCUGAUGAGUCUNNNNNNAGACGAAACAGC

variants of: B1; assay: normalized RNA/DNA level without ligand (relative to sTRSVctl = 100) (log10 (% of sTRSVctl)); ligand: hypoxanthine (xanthine aptamer); higher = less ribozyme self-cleavage, higher mRNA level; details: HEK293T, reporter: mCherry (pCS4076), ligand present: no
For each of the variants below, state its normalized RNA/DNA level without ligand (log10).
Reply briefly: the number, and no unit.

Qu. # normalized RNA/DNA level without ligand (log10) lookup, item CGCGGA
Ans. 1.86

Qu. Subsequent entry: UCAAAA
Ans. 1.72

Qu. What about GAGACG ?
Ans. 1.25

Qu. How about AUGACA ?
Ans. 1.8

Qu. Likewise for GAAGCG ?
Ans. 1.4

Qu. // next record UGCCCA
Ans. 1.92

Qu. Try this variant next: CACACU
Ans. 1.87

Qu. Likewise for AAGCCU ?
Ans. 1.85

Qu. Record: AUGUUU
Ans. 1.85

Qu. Another variant: UUUUAC
Ans. 1.83

Qu. Similarly, UGGGGG ?
Ans. 1.57

Qu. Further, for AGUCCA ?
Ans. 1.87

Qu. Please do the same for CAAGUC as well.
Ans. 1.92

Qu. Moving on to UGCCGA
Ans. 1.68

Qu. GGCUAU , same question.
Ans. 1.88

Qu. Check AGGUAU too.
Ans. 1.69

Qu. // next record ACGAAA
Ans. 1.47

Qu. Also AACUGC , if possible.
Ans. 1.87

Qu. Thanks! And UGGGAA ?
Ans. 1.64

Qu. One more variant: GUUGCA
Ans. 1.81

Qu. Lookup GUGCAG
Ans. 1.3

Qu. And the next one, CAAGCG ?
Ans. 1.82
